Entry source: ChEMBL document CHEMBL5058577

- Tested on: Fibroblast
- ASSAY PROCEDURE: Multiplex assay against human fibroblast
- Format: toxicity, cell-based
- CONDITIONS USED: 12 h, 10 µM, compound concentration 10 uM, replicate 1
Output Met for Population Tubulin-Different-Phenotype (%) not less than 30%; output Not met otherwise.

Cc1ccccc1C(=O)Nc1ccc(C(=O)N2CCCC(N(C)C)c3ccccc32)cc1.Cl (stereo not given) :: Met
CN1CCN(c2nc3cc(C(F)(F)F)ccc3n3cccc23)CC1.O=C(O)/C=C\C(=O)O.O=C(O)/C=C\C(=O)O :: Met
CCCN1CCC[C@@H]2Cc3n[nH]cc3C[C@H]21.Cl [QUINPIROLE HYDROCHLORIDE] :: Met

Given CC1(COc2ccc3c(c2)ncn3-c2ccc3cccc(N4CCC(N)CC4)c3n2)COC1 , state whether its Population Tubulin-Different-Phenotype (%) is at least 30%. Met

Threshold query (Population Tubulin-Different-Phenotype (%) >= 30%) on Cc1ccc(C(C)(O)c2nc3ccccc3s2)c(C)c1 (stereo not given) Not met

Test whether the compound CN(C)c1ccnc2sc3c(=O)n(N4CCCCCC4)cnc3c12 records Population Tubulin-Different-Phenotype (%) of 30% or higher. Met

Record O=C(NCCO)c1cccc(-c2cc(Nc3ccc(OC(F)(F)F)cc3)ncn2)c1 ; criterion: Population Tubulin-Different-Phenotype (%) no lower than 30%. Met? Met

---

The entries below come with measured Population Membrane Permeable-Phenotype (%) values attached.
- System: U2OS
- ASSAY PROCEDURE: Multiplex assay against U2OS
- Type: toxicity, cell-based
- CONDITIONS USED: human, 48 h, 1 µM, compound concentration 1 uM, replicate 1
// return numeric value only (unit: %, not printed)

CCOc1c2c(c(OCC)c3ncccc13)CN(c1ccc(CS(=O)(=O)NC(=O)Cc3ccccc3OC)cc1C)C2=O :: 3
N[C@@]1(C(=O)O)CO[C@H]2[C@H](C(=O)O)[C@H]21 [LY-379268] :: 3
CN1CCN(c2nc3cc(C(F)(F)F)ccc3n3cccc23)CC1.O=C(O)/C=C\C(=O)O.O=C(O)/C=C\C(=O)O :: 4

Fill in reported Population Membrane Permeable-Phenotype (%) for this entry: Cc1ccc(F)cc1C(=O)Nc1ccc(C(=O)N2Cc3cccn3Cc3ccccc32)c(Cl)c1 [LIXIVAPTAN] 9

---

- Test system: Fibroblast
- ASSAY PROCEDURE: Multiplex assay against human fibroblast
- Type: toxicity, cell-based
- CONDITIONS USED: 24 h, 10 µM, compound concentration 10 uM, replicate 1
MEASURE NAME: Population Pyknosed Nuclei (%)
Lab note: write values as number then unit, every time.

CCNC1(C(N)=O)CCN(c2ncnc3c2nc(-c2ccccc2Cl)n3-c2ccc(Cl)cc2)CC1 [OTENABANT] :: 12%
O=C1COc2nccc(-c3ccccc3F)c2CN1Cc1cc(C(F)(F)F)cc(C(F)(F)F)c1 :: 9%
Cc1nc2ccc(Oc3ccc(F)cc3)cc2c(=O)n1C[C@H]1CCCN(C(C)C)C1.Cl :: 13%
C[C@H](NC(=O)c1c(C(F)F)nn(C)c1Oc1cccc(C(F)(F)F)c1)c1ccc(C(=O)O)cc1 [PALUPIPRANT] :: 18%
CCCn1c(=O)c2[nH]c(C3CCCC3)nc2n(CCC)c1=O :: 22%
CCOc1c2c(c(OCC)c3ncccc13)CN(c1ccc(CS(=O)(=O)NC(=O)Cc3ccccc3OC)cc1C)C2=O :: 15%
CN(C)CCCc1cc(C(=O)Nc2ccc(-c3ccncc3)cc2)ccc1O.Cl.Cl :: 5%
CC1(COc2ccc3c(c2)ncn3-c2ccc3cccc(N4CCC(N)CC4)c3n2)COC1 [CRENOLANIB] :: 24%
COc1cc(C(=O)N(CCCc2ccccc2)Cc2ccc(CC(=O)O)cc2)cc(OC)c1C :: 10%
Cc1ccc(F)cc1C(=O)Nc1ccc(C(=O)N2Cc3cccn3Cc3ccccc32)c(Cl)c1 [LIXIVAPTAN] :: 17%

Specify Population Pyknosed Nuclei (%) for O=S(=O)(c1ccccc1)c1cnc2c(N3CCNCC3)cccc2c1 [INTEPIRDINE] and stop. 6%

Report Population Pyknosed Nuclei (%), nothing else, for this compound: COc1c(C)cc(NC(=O)c2nn(Cc3ccc(F)cc3)c3c2CN(C(=O)c2ccc[nH]2)C[C@]3(C)C(N)=O)cc1C 20%

Return the recorded Population Pyknosed Nuclei (%) value; entry: CC[C@H]1OC(=O)[C@H](C)[C@@H](O[C@H]2C[C@@](C)(OC)[C@@H](O)[C@H](C)O2)[C@H](C)[C@@H](O[C@@H]2O[C@H](C)C[C@H](N(C)C)[C@H]2O)[C@@]2(C)CC(C)=C(O2)[C@H](C)[C@@H](O)[C@]1(C)O 8%

Please look at this compound and report its Population Pyknosed Nuclei (%): N[C@@]1(C(=O)O)CO[C@H]2[C@H](C(=O)O)[C@H]21 [LY-379268] 10%

Retrieve Population Pyknosed Nuclei (%) measured for O=C(NCC(=O)N1CC[C@H](N[C@H]2CC[C@@](O)(c3ccc(-c4ncccn4)cn3)CC2)C1)c1cccc(C(F)(F)F)c1 [PF-4136309] and print it. 11%

Provide Population Pyknosed Nuclei (%) value for the following compound: Oc1c(CN2CCN(c3ccccn3)CC2)cc(Cl)c2cccnc12 27%

---

- Tested on: U2OS
- ASSAY PROCEDURE: Multiplex assay against U2OS
- Type: toxicity, cell-based
- CONDITIONS USED: human, 12 h, 10 µM, compound concentration 10 uM, replicate 1
# cutoff 10% applies to Population Pyknosed Nuclei (%); >= gives criterion met, < gives criterion not met

Consider the worked cases shown below.
Cc1ccc(-c2ccc(F)cc2COc2ccc(CCC(=O)O)cc2)cc1 :: criterion not met
O=C(O)Cc1ccccc1Nc1c(Cl)cccc1Cl [DICLOFENAC] :: criterion met
C[C@@H]1C[C@H]2[C@@H]3CCC4=CC(=O)C=C[C@]4(C)[C@@]3(F)[C@@H](O)C[C@]2(C)[C@@]1(O)C(=O)CO [DEXAMETHASONE] :: criterion not met
O=S(=O)(c1ccccc1)c1cnc2c(N3CCNCC3)cccc2c1 [INTEPIRDINE] :: criterion met
CN(C)CCCc1cc(C(=O)Nc2ccc(-c3ccncc3)cc2)ccc1O.Cl.Cl :: criterion not met
Cc1ccccc1C(=O)Nc1ccc(C(=O)N2CCCC(N(C)C)c3ccccc32)cc1.Cl (configuration not stated) :: criterion met

In plain terms: is recorded Population Pyknosed Nuclei (%) at least 10% for COc1cc(NC(=O)CCN2CCC(OC(=O)Nc3ccccc3-c3ccccc3)CC2)c(Cl)cc1CNC[C@H](O)c1ccc(O)c2[nH]c(=O)ccc12 [BATEFENTEROL] ? criterion met

Quick check, Population Pyknosed Nuclei (%) >= 10%? Cc1ccc(F)cc1C(=O)Nc1ccc(C(=O)N2Cc3cccn3Cc3ccccc32)c(Cl)c1 [LIXIVAPTAN] criterion met

Determine whether this compound has Population Pyknosed Nuclei (%) no lower than 10%: O=C(NCC(=O)N1CC[C@H](N[C@H]2CC[C@@](O)(c3ccc(-c4ncccn4)cn3)CC2)C1)c1cccc(C(F)(F)F)c1 [PF-4136309] criterion met

Does the compound CSc1ccccc1N1CCN(CCCCCC(=O)NC2CCCc3ccccc32)CC1.Cl (configuration not stated) have recorded Population Pyknosed Nuclei (%) that is 10% or more? criterion met

---

- System: Fibroblast
- ASSAY PROCEDURE: Multiplex assay against human fibroblast
- Format: toxicity, cell-based
- CONDITIONS USED: 48 h, 10 µM, compound concentration 10 uM, replicate 2
Label yes when Population Hoechst High Intensity Objects (%) < 3%; otherwise no.

Some entries whose results are on file:
O=C(NCCO)c1cccc(-c2cc(Nc3ccc(OC(F)(F)F)cc3)ncn2)c1 :: no
CN1CCN2c3ncccc3Cc3ccccc3C2C1 (stereo not given) [MIRTAZAPINE] :: yes
CN1CCN(c2nc3cc(C(F)(F)F)ccc3n3cccc23)CC1.O=C(O)/C=C\C(=O)O.O=C(O)/C=C\C(=O)O :: no
N[C@@]1(C(=O)O)CO[C@H]2[C@H](C(=O)O)[C@H]21 [LY-379268] :: no
C[C@@H]1C[C@H]2[C@@H]3CCC4=CC(=O)C=C[C@]4(C)[C@@]3(F)[C@@H](O)C[C@]2(C)[C@@]1(O)C(=O)CO [DEXAMETHASONE] :: no

Field: below-cutoff. Rule: recorded Population Hoechst High Intensity Objects (%) strictly less than 3%. Subject: CSc1ccccc1N1CCN(CCCCCC(=O)NC2CCCc3ccccc32)CC1.Cl (stereo not given) no

Lab note: Population Hoechst High Intensity Objects (%) threshold 3%. Does this compound come in strictly under it? CC(C)(C)c1ccc(S(=O)(=O)Nc2ccc(Cl)cc2C(=O)c2cc[n+]([O-])cc2)cc1 [VERCIRNON] no

Answer whether the compound CC[C@H]1OC(=O)[C@H](C)[C@@H](O[C@H]2C[C@@](C)(OC)[C@@H](O)[C@H](C)O2)[C@H](C)[C@@H](O[C@@H]2O[C@H](C)C[C@H](N(C)C)[C@H]2O)[C@@]2(C)CC(C)=C(O2)[C@H](C)[C@@H](O)[C@]1(C)O has Population Hoechst High Intensity Objects (%) strictly less than 3% no
